- Tested on: 883617-216-R-J1-PDC complex spheroids, growth, % test/control
- assay.procedure: Anticancer human tumor 883617-216-R-J1-PDC patient-derived bladder carcinoma cell line growth inhibition [AhR]
- condition.details: second compound 3.16 µM; first compound 0.03 µM; active compounds read low
Answer each item with its documented viability, T/C.
Unit % implied. Number only.

stdin: What measured viability, T/C goes with CC(C)CC(NC(=O)C(Cc1ccccc1)NC(=O)c1cnccn1)B(O)O (stereo not drawn) + Cc1cncc(-c2nc(NCCc3c[nH]c4ccccc34)c3ncn(C(C)C)c3n2)c1 ?
stdout: 0.14

stdin: Now consider CC(C)CC(NC(=O)C(Cc1ccccc1)NC(=O)c1cnccn1)B(O)O (stereo not drawn) + Cc1ccccc1N=Nc1ccc(NC(=O)c2ccnn2C)c(C)c1 .
stdout: 0.11

stdin: Now consider CC(C)CC(NC(=O)C(Cc1ccccc1)NC(=O)c1cnccn1)B(O)O (stereo not drawn) + CC(CO)NC(=O)c1cc(-c2ccc(Cl)cc2)nn(-c2cnn(C)c2)c1=O .
stdout: 2.25

====

- Test system: 883617-216-R-J1-PDC complex spheroids, growth, % test/control
- assay.procedure: Anticancer human tumor 883617-216-R-J1-PDC cell line growth inhibition [AhR];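 also: exposure lasted 7 days after dosing on day 3 of spheroid growth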
- condition.details: second compound 1 µM; first compound 0.000949 µM; active compounds read low
- Excerpt: Multicellular complex tumor spheroid response to aryl hydrocarbon receptor antagonists in combination with a variety of drugs and investigational agents in selected tumor cell lines […] Compounds. […] If the clinical Cmax for an agent had not been determined, the highest concentration tested was 10 microM (Table 1). […]
quantity.measured: viability, T/C (%)
Unit % implied. Number only.

stdin: What measured viability, T/C goes with CC(C)CC(NC(=O)C(Cc1ccccc1)NC(=O)c1cnccn1)B(O)O (stereo unspecified) + Cc1cncc(-c2nc(NCCc3c[nH]c4ccccc34)c3ncn(C(C)C)c3n2)c1 ?
stdout: 111

stdin: Now consider Nc1ncn(C2CC(O)C(CO)S2)c(=O)n1 (stereo unspecified) + Cc1cncc(-c2nc(NCCc3c[nH]c4ccccc34)c3ncn(C(C)C)c3n2)c1 .
stdout: 105

stdin: Now consider CC(C)CC(NC(=O)C(Cc1ccccc1)NC(=O)c1cnccn1)B(O)O (stereo unspecified) + CC(CO)NC(=O)c1cc(-c2ccc(Cl)cc2)nn(-c2cnn(C)c2)c1=O .
stdout: 123

stdin: Now consider CCc1c2c(nc3ccc(O)cc13)-c1cc3c(c(=O)n1C2)COC(=O)[C@]3(O)CC + Cc1cncc(-c2nc(NCCc3c[nH]c4ccccc34)c3ncn(C(C)C)c3n2)c1 .
stdout: 87.6

stdin: Now consider CCc1c2c(nc3ccc(O)cc13)-c1cc3c(c(=O)n1C2)COC(=O)[C@]3(O)CC + Cc1ccccc1N=Nc1ccc(NC(=O)c2ccnn2C)c(C)c1 .
stdout: 80.9

stdin: Now consider Nc1ncn(C2CC(O)C(CO)S2)c(=O)n1 (stereo unspecified) + CC(CO)NC(=O)c1cc(-c2ccc(Cl)cc2)nn(-c2cnn(C)c2)c1=O .
stdout: 69.9

====

Answer each item with its documented viability, T/C.
- Tested on: 883617-216-R-J1-PDC complex spheroids, growth, % test/control
- assay.procedure: Anticancer human tumor 883617-216-R-J1-PDC cell line growth inhibition [AhR];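 also: exposure lasted 7 days after dosing on day 3 of spheroid growth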
- condition.details: second compound 0.316 µM; first compound 1 µM; active compounds read low

stdin: Identify the measured viability, T/C of Nc1ccccc1NC(=O)c1ccc(CNC(=O)OCc2cccnc2)cc1 + Cc1ccccc1N=Nc1ccc(NC(=O)c2ccnn2C)c(C)c1 for 883617-216-R-J1-PDC complex spheroids, growth, % test/control.
stdout: 49.5%

stdin: Now consider Nc1ccn(C2OC(CO)C(O)C2(F)F)c(=O)n1 (stereo not drawn) + Cc1ccccc1N=Nc1ccc(NC(=O)c2ccnn2C)c(C)c1 .
stdout: 33.5%

stdin: Now consider COc1cccc2c1C(=O)c1c(O)c3c(c(O)c1C2=O)CC(O)(C(=O)CO)CC3OC1CC(N)C(O)C(C)O1 (stereo not drawn) + Cc1ccccc1N=Nc1ccc(NC(=O)c2ccnn2C)c(C)c1 .
stdout: 16.7%

stdin: Now consider CC1(C)CCC(CN2CCN(c3ccc(C(=O)NS(=O)(=O)c4ccc(NCC5CCOCC5)c([N+](=O)[O-])c4)c(Oc4cnc5[nH]ccc5c4)c3)CC2)=C(c2ccc(Cl)cc2)C1 + Cc1ccccc1N=Nc1ccc(NC(=O)c2ccnn2C)c(C)c1 .
stdout: 85.3%

stdin: Now consider CC1COCCN1c1cc(-c2ccnn2C)c2ccnc(-c3ccn[nH]3)c2n1 (stereo not drawn) + CC(CO)NC(=O)c1cc(-c2ccc(Cl)cc2)nn(-c2cnn(C)c2)c1=O .
stdout: 53.1%

stdin: Now consider NS(=O)(=O)OCC1CC(n2ccc3c(NC4CCc5ccccc54)ncnc32)CC1O (stereo not drawn) + CC(CO)NC(=O)c1cc(-c2ccc(Cl)cc2)nn(-c2cnn(C)c2)c1=O .
stdout: 61.5%

stdin: Now consider CC1COCCN1c1cc(C2(S(C)(=N)=O)CC2)nc(-c2ccnc3[nH]ccc23)n1 (stereo not drawn) + CC(CO)NC(=O)c1cc(-c2ccc(Cl)cc2)nn(-c2cnn(C)c2)c1=O .
stdout: 56.3%

stdin: Now consider O=C(C=Cc1cccc(S(=O)(=O)Nc2ccccc2)c1)NO + CC(CO)NC(=O)c1cc(-c2ccc(Cl)cc2)nn(-c2cnn(C)c2)c1=O .
stdout: 105%

stdin: Now consider Nc1ncn(C2CC(O)C(CO)O2)c(=O)n1 (stereo not drawn) + CC(CO)NC(=O)c1cc(-c2ccc(Cl)cc2)nn(-c2cnn(C)c2)c1=O .
stdout: 89.7%

stdin: Now consider CC(C)c1c(-c2ccccc2)nc2c(C#N)c[nH]n2c1=O + CC(CO)NC(=O)c1cc(-c2ccc(Cl)cc2)nn(-c2cnn(C)c2)c1=O .
stdout: 74%

stdin: Now consider Nc1ccn(C2OC(CO)C(O)C2(F)F)c(=O)n1 (stereo not drawn) + CC(CO)NC(=O)c1cc(-c2ccc(Cl)cc2)nn(-c2cnn(C)c2)c1=O .
stdout: 84.8%

stdin: Now consider Nc1ccccc1NC(=O)c1ccc(CNC(=O)OCc2cccnc2)cc1 + Cc1cncc(-c2nc(NCCc3c[nH]c4ccccc34)c3ncn(C(C)C)c3n2)c1 .
stdout: 40.1%

stdin: Now consider COc1ccc([C@@H](O)c2cc(-c3ncnc4cc(N5CCOCC5)ccc34)c(F)cc2Cl)nn1 + CC(CO)NC(=O)c1cc(-c2ccc(Cl)cc2)nn(-c2cnn(C)c2)c1=O .
stdout: 63.9%

====

- Test system: 883617-216-R-J1-PDC complex spheroids, growth, % test/control
- assay.procedure: Anticancer human tumor 883617-216-R-J1-PDC cell line growth inhibition [AhR];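 also: exposure lasted 7 days after dosing on day 3 of spheroid growth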
- condition.details: second compound 0.316 µM; first compound 10 µM; active compounds read low
Answer each item with its documented viability, T/C.

stdin: Identify the measured viability, T/C of O=C(C=Cc1cccc(S(=O)(=O)Nc2ccccc2)c1)NO + Cc1cncc(-c2nc(NCCc3c[nH]c4ccccc34)c3ncn(C(C)C)c3n2)c1 for 883617-216-R-J1-PDC complex spheroids, growth, % test/control.
stdout: 4.17%

stdin: Now consider O=C(C=Cc1cccc(S(=O)(=O)Nc2ccccc2)c1)NO + Cc1ccccc1N=Nc1ccc(NC(=O)c2ccnn2C)c(C)c1 .
stdout: 2.44%

stdin: Now consider NS(=O)(=O)OCC1CC(n2ccc3c(NC4CCc5ccccc54)ncnc32)CC1O (stereo unspecified) + CC(CO)NC(=O)c1cc(-c2ccc(Cl)cc2)nn(-c2cnn(C)c2)c1=O .
stdout: 29.2%

stdin: Now consider COc1cc(C2c3cc4c(cc3C(OC3OC5COC(C)OC5C(O)C3O)C3COC(=O)C23)OCO4)cc(OC)c1O (stereo unspecified) + CC(CO)NC(=O)c1cc(-c2ccc(Cl)cc2)nn(-c2cnn(C)c2)c1=O .
stdout: 69.4%

stdin: Now consider COc1ccc([C@@H](O)c2cc(-c3ncnc4cc(N5CCOCC5)ccc34)c(F)cc2Cl)nn1 + CC(CO)NC(=O)c1cc(-c2ccc(Cl)cc2)nn(-c2cnn(C)c2)c1=O .
stdout: 42.2%

stdin: Now consider COc1cccc2c1C(=O)c1c(O)c3c(c(O)c1C2=O)CC(O)(C(=O)CO)CC3OC1CC(N)C(O)C(C)O1 (stereo unspecified) + Cc1cncc(-c2nc(NCCc3c[nH]c4ccccc34)c3ncn(C(C)C)c3n2)c1 .
stdout: 0.15%

====

Answer each item with its documented viability, T/C.
- Test system: 883617-216-R-J1-PDC complex spheroids, growth, % test/control
- assay.procedure: Anticancer human tumor 883617-216-R-J1-PDC cell line growth inhibition [AhR];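 also: exposure lasted 7 days after dosing on day 3 of spheroid growth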
- condition.details: second compound 1 µM; first compound 3.16 µM; active compounds read low
Unit % implied. Number only.

stdin: What measured viability, T/C goes with CC(C)c1c(-c2ccccc2)nc2c(C#N)c[nH]n2c1=O + Cc1ccccc1N=Nc1ccc(NC(=O)c2ccnn2C)c(C)c1 ?
stdout: 91

stdin: Now consider O=C(C=Cc1cccc(S(=O)(=O)Nc2ccccc2)c1)NO + CC(CO)NC(=O)c1cc(-c2ccc(Cl)cc2)nn(-c2cnn(C)c2)c1=O .
stdout: 41.6

stdin: Now consider CC1COCCN1c1cc(C2(S(C)(=N)=O)CC2)nc(-c2ccnc3[nH]ccc23)n1 (centres undefined) + Cc1cncc(-c2nc(NCCc3c[nH]c4ccccc34)c3ncn(C(C)C)c3n2)c1 .
stdout: 81.7

stdin: Now consider Nc1ccccc1NC(=O)c1ccc(CNC(=O)OCc2cccnc2)cc1 + Cc1cncc(-c2nc(NCCc3c[nH]c4ccccc34)c3ncn(C(C)C)c3n2)c1 .
stdout: 14.1

stdin: Now consider COc1cc(Nc2ncc3c(n2)-c2ccc(Cl)cc2C(c2c(F)cccc2OC)=NC3)ccc1C(=O)O + Cc1cncc(-c2nc(NCCc3c[nH]c4ccccc34)c3ncn(C(C)C)c3n2)c1 .
stdout: 80

stdin: Now consider COc1ccc([C@@H](O)c2cc(-c3ncnc4cc(N5CCOCC5)ccc34)c(F)cc2Cl)nn1 + Cc1cncc(-c2nc(NCCc3c[nH]c4ccccc34)c3ncn(C(C)C)c3n2)c1 .
stdout: 50.7

stdin: Now consider COc1cc(Nc2ncc3c(n2)-c2ccc(Cl)cc2C(c2c(F)cccc2OC)=NC3)ccc1C(=O)O + CC(CO)NC(=O)c1cc(-c2ccc(Cl)cc2)nn(-c2cnn(C)c2)c1=O .
stdout: 103

stdin: Now consider Nc1ccccc1NC(=O)c1ccc(CNC(=O)OCc2cccnc2)cc1 + Cc1ccccc1N=Nc1ccc(NC(=O)c2ccnn2C)c(C)c1 .
stdout: 20.1

stdin: Now consider CC1COCCN1c1cc(C2(S(C)(=N)=O)CC2)nc(-c2ccnc3[nH]ccc23)n1 (centres undefined) + CC(CO)NC(=O)c1cc(-c2ccc(Cl)cc2)nn(-c2cnn(C)c2)c1=O .
stdout: 103
